# assay system: T1, CD40 ligand (UniProt P29965 108-261, limits assumed)
# T1 construct: Used immobilised, soluble, or biotinylated on streptavidin beads; also called CD154; soluble CD40L
# T1 sequence (looked up): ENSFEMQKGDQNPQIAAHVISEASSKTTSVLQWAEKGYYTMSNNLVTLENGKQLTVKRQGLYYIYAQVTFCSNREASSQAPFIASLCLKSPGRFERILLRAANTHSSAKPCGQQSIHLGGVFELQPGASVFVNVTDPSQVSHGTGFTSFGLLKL
# assay procedure: phage-displayed peptide on bound CD40L, soluble CD40L as competitor
pIC50: −log10 of the molar value.
value type: pIC50

> print(dat)
                                     binder  value.type  test.value
1  LPFVPYRSHVLKYGWFFPVQWSIFAVLPFQYLHRCR (Base peptide) [CD40L M1_18]       pIC50        7.60
2  PPRYNLFFLFRFYCSFRRDYLYF (Base peptide) [CD40L M1_9]       pIC50        7.09
3  HPFSIKNVFCIWNFFSVY (Base peptide) [CD40L M1_6]       pIC50        7.79
4  PRWVRNRFYCLFVPSGVQRGGIHLWFSNWVR (Base peptide) [CD40L M1_50]       pIC50        7.34
